Assay target: hSULT1A3 (Homo sapiens, UniProt P0DMM9)
Construct: 6-histidine tag (N); TEV site (N); made in house; host or cells: Escherichia coli BL21 (DE3), pET29a(+)
Sequence (P0DMM9 whole entry): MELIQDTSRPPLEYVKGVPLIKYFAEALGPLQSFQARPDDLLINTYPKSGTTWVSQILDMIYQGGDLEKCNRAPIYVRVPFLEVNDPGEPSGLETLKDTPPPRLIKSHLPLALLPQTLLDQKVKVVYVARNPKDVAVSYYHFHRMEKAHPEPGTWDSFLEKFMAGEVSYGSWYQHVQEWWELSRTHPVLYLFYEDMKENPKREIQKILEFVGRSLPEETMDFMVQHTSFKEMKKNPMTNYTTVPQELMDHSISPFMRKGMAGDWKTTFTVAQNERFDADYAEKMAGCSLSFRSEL
Assay remarks: Fluorescence-based microplate inhibition assay, hSULT1A3-catalyzed HN-241 4-O-sulfation
Assay type: biochemical
Condition parameters: test compound 10 μM, HN-241 10 μM, 15 min; read-out: Residue activity (%) hSULT1A3
Attribute measured: activity at 10 µM (%)
Give just the number in %; leave the unit off.

Name the recorded activity at 10 µM of the item `CC(C)=CC[C@@H](O)C1=CC(=O)c2c(O)ccc(O)c2C1=O` in your answer.
61

Name the recorded activity at 10 µM of the item O=C1c2c(O)cc(O)cc2OC(c2ccc(O)c(O)c2)C1O (centres unmarked) in your answer.
59.7

Name the recorded activity at 10 µM of the item `CC(C)=CCc1cc(-c2oc3cc(O)cc(O)c3c(=O)c2O)ccc1O` in your answer.
62.1

Name the recorded activity at 10 µM of the item `CC(C)Oc1ccc2c(=O)c(-c3ccccc3)coc2c1` in your answer.
117

Name the recorded activity at 10 µM of the item `O=C(O)c1cc(O)c2c(c1)C(=O)c1cccc(O)c1C2=O` in your answer.
96.9

---

Assay target: hSULT1A2 (Homo sapiens)
Construct: 6-histidine tag (N); TEV site (N); made in house; host or cells: Escherichia coli BL21 (DE3), pET29a(+)
Sequence (P50226 whole entry): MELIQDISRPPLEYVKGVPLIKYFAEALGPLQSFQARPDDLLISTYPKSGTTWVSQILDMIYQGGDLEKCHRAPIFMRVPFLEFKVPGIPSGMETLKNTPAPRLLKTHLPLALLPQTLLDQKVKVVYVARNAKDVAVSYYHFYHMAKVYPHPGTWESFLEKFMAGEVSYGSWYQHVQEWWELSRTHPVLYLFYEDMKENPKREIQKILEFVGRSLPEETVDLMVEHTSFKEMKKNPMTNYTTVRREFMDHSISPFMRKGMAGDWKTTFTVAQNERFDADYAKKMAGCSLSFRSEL
Assay remarks: Fluorescence-based microplate inhibition assay, hSULT1A2-catalyzed HN-241 4-O-sulfation
Type: biochemical
Condition parameters: test compound 10 μM, HN-241 5 μM, 15 min
The threshold is inclusive: Residue activity (%) hSULT1A2 of exactly 80% counts as Yes; values below receive No.

Solved cases (5 shown):
Compound	Class
COc1ccc(-c2oc3c(CC=C(C)C)c(O[C@@H]4O[C@H](CO)[C@@H](O)[C@H](O)[C@H]4O)cc(O)c3c(=O)c2O[C@@H]2O[C@@H](C)[C@H](O)[C@@H](O)[C@H]2O[C@@H]2O[C@@H](C)[C@H](O)[C@@H](O)[C@H]2O)cc1 [Epimedin C]	Yes
COc1ccc(-c2coc3cc(O[C@@H]4O[C@H](CO)[C@@H](O)[C@H](O)[C@H]4O)ccc3c2=O)cc1O [Calycosin-7-O-β-D-glucoside]	No
CC(C)=CCC[C@](C)(O)[C@H]1CC[C@]2(C)[C@@H]1[C@H](O)C[C@@H]1[C@@]3(C)CC[C@H](O)C(C)(C)[C@@H]3CC[C@]12C [(20S)-Protopanaxdiol]	Yes
C=C(CCC=C(C)C)[C@H]1CC[C@]2(C)[C@@H]1[C@H](O)C[C@@H]1[C@@]3(C)CC[C@H](O)C(C)(C)[C@@H]3[C@@H](O[C@@H]3O[C@H](CO)[C@@H](O)[C@H](O)[C@H]3O[C@@H]3O[C@@H](C)[C@H](O)[C@@H](O)[C@H]3O)C[C@]12C [Ginsenoside Rg6]	Yes
COC(=O)/C=C/c1ccc(O)c(O)c1 [Methyl caffeate acid]	No

Is Residue activity (%) hSULT1A2 at least 80%? Consider `Cc1c2[n+](cc3cc4c(cc13)OCO4)CCc1cc3c(cc1-2)OCO3`
Yes

Is Residue activity (%) hSULT1A2 at least 80%? Consider CC(C)=CCC[C@](C)(O)[C@H]1CC[C@]2(C)[C@@H]1[C@H](O)C[C@@H]1[C@@]3(C)CC[C@H](O[C@@H]4O[C@H](CO)[C@@H](O)[C@H](O)[C@H]4O)C(C)(C)[C@@H]3CC[C@]12C [20(S)-Ginsenoside Rh2]
Yes

Is Residue activity (%) hSULT1A2 at least 80%? Consider CC(C)=CCC[C@@](C)(O)[C@H]1CC[C@]2(C)[C@@H]1[C@H](O)C[C@@H]1[C@@]3(C)CC[C@H](O[C@@H]4O[C@H](CO)[C@@H](O)[C@H](O)[C@H]4O)C(C)(C)[C@@H]3CC[C@]12C [20(R)-Ginsenoside Rh2]
Yes

Is Residue activity (%) hSULT1A2 at least 80%? Consider `CC(C)=CCc1c(-c2ccc(O)cc2O)oc2c(CC=C(C)C)c(O)cc(O)c2c1=O`
Yes

Is Residue activity (%) hSULT1A2 at least 80%? Consider C=C(CCC=C(C)C)[C@H]1CC[C@]2(C)[C@@H]1[C@H](O)C[C@@H]1[C@@]3(C)CC[C@H](O[C@@H]4O[C@H](CO)[C@@H](O)[C@H](O)[C@H]4O)C(C)(C)[C@@H]3CC[C@]12C [Ginsenoside Rk2]
Yes

Is Residue activity (%) hSULT1A2 at least 80%? Consider `COc1cc2c(=O)c(-c3ccc(O)cc3)coc2cc1O[C@@H]1O[C@H](CO)[C@@H](O)[C@H](O)[C@H]1O`
Yes

Is Residue activity (%) hSULT1A2 at least 80%? Consider O=C(/C=C/c1ccccc1)c1ccccc1 [trans-Chalcone]
Yes

Is Residue activity (%) hSULT1A2 at least 80%? Consider COc1ccc(-c2oc3c(CC=C(C)C)c(O[C@@H]4O[C@H](CO)[C@@H](O)[C@H](O)[C@H]4O)cc(O)c3c(=O)c2O)cc1 [Icariside I]
Yes

Is Residue activity (%) hSULT1A2 at least 80%? Consider `O=C(/C=C/c1ccc(O[C@@H]2O[C@H](CO)[C@@H](O)[C@H](O)[C@H]2O)cc1)c1ccc(O)cc1O`
Yes

Is Residue activity (%) hSULT1A2 at least 80%? Consider `Cc1c(O)c(C)c2c(c1O)C(=O)[C@H](Cc1ccc3c(c1)OCO3)CO2`
No

Is Residue activity (%) hSULT1A2 at least 80%? Consider CC(C)=CCC[C@@](C)(O)[C@H]1CC[C@]2(C)[C@@H]1[C@H](O)C[C@@H]1[C@@]3(C)CC[C@H](O)C(C)(C)[C@@H]3[C@@H](O[C@@H]3O[C@H](CO)[C@@H](O)[C@H](O)[C@H]3O[C@@H]3OC[C@@H](O)[C@H](O)[C@H]3O)C[C@]12C [20(R)-Notoginsenoside R2]
Yes

Is Residue activity (%) hSULT1A2 at least 80%? Consider `COc1cc2c(c(O)c1OC)C(=O)c1c(cc(C)c(O)c1OC)C2=O`
No

Is Residue activity (%) hSULT1A2 at least 80%? Consider CC(C)=CCC[C@](C)(O)[C@H]1CC[C@]2(C)[C@@H]1[C@H](O)C[C@@H]1[C@@]3(C)CC[C@H](O)C(C)(C)[C@@H]3[C@@H](O[C@@H]3O[C@H](CO)[C@@H](O)[C@H](O)[C@H]3O[C@@H]3OC[C@@H](O)[C@H](O)[C@H]3O)C[C@]12C [Notoginsenoside R2]
Yes

Is Residue activity (%) hSULT1A2 at least 80%? Consider `COc1cc(OC)c(CCC(=O)c2ccc(O)cc2)c(OC)c1`
No

---

activity at 10 µM reference
Assay target: hSULT1A3 (Homo sapiens)
Construct: 6-histidine tag (N); TEV site (N); made in house; host or cells: Escherichia coli BL21 (DE3), pET29a(+)
Assay remarks: Fluorescence-based microplate inhibition assay, hSULT1A3-catalyzed HN-241 4-O-sulfation
Assay type: biochemical
Condition parameters: test compound 10 μM, HN-241 10 μM, 15 min; read-out: Residue activity (%) hSULT1A3
Give just the number in %; leave the unit off.

Known results for molecules:
Smi	Attribute measured	Observed value
Cc1cc(O)c2c(c1)C(=O)c1cccc(O)c1C2=O	activity at 10 µM	99.3
CC1(C)[C@@H](O[C@H]2O[C@H](C(=O)O)[C@@H](O)[C@H](O)[C@H]2O[C@@H]2O[C@H](C(=O)O)[C@@H](O)[C@H](O)[C@H]2O)CC[C@]2(C)[C@H]3C(=O)C=C4[C@@H]5C[C@@](C)(C(=O)O)CC[C@]5(C)CC[C@@]4(C)[C@]3(C)CC[C@@H]12	activity at 10 µM	121

We now examine a further molecule.
Name the recorded activity at 10 µM of the item `O=c1c(O)c(-c2cc(O)c(O)c(O)c2)oc2cc(O)cc(O)c12` in your answer.
39.8

---

Assay target: hSULT1A3 (Homo sapiens)
Construct: 6-histidine tag (N); TEV site (N); made in house; host or cells: Escherichia coli BL21 (DE3), pET29a(+)
Assay remarks: Fluorescence-based microplate inhibition assay, hSULT1A3-catalyzed HN-241 4-O-sulfation
Type: biochemical
Condition parameters: test compound 10 μM, HN-241 10 μM, 15 min
Attribute measured: Residue activity (%) hSULT1A3
Give just the number in %; leave the unit off.

Known results for compounds:
Compound	Assay target	Residue activity (%) hSULT1A3
C[C@]12CC[C@H](O)C[C@@]1(O)CC[C@@H]1[C@@H]2CC[C@]2(C)[C@@H](c3ccc(=O)oc3)CC[C@]12O	hSULT1A3 (Homo sapiens)	114.49
O=C1C[C@@H](c2ccc(O)cc2)Oc2cc(O)ccc21	hSULT1A3 (Homo sapiens)	76.68
COc1cc2c(=O)c(-c3ccc(O)cc3)coc2cc1O[C@@H]1O[C@H](CO)[C@@H](O)[C@H](O)[C@H]1O	hSULT1A3 (Homo sapiens)	114.83

We now examine a further compound.
Name the recorded Residue activity (%) hSULT1A3 of the item CC(C)=CCC[C@@](C)(O)[C@H]1CC[C@]2(C)[C@@H]1[C@H](O)C[C@@H]1[C@@]3(C)CC[C@H](O[C@@H]4O[C@H](CO)[C@@H](O)[C@H](O)[C@H]4O)C(C)(C)[C@@H]3CC[C@]12C [20(R)-Ginsenoside Rh2] in your answer.
116.23
